Tested on: ACHN renal
assay: NCI tumour cell line growth inhibition, 48 h
observable: TGI

Bench note: what TGI did `COc1ccc2[nH]c(Cl)c(/C=C3/C(=O)N(C)c4ccccc43)c2c1` show?
> 100 µM

Bench note: what TGI did `CCSc1nc(N=Cc2cccs2)c2cn[nH]c2n1` show?
> 100 µM

Bench note: what TGI did `CC(=O)OC(C)(C)/C=C/C(=O)[C@](C)(O)[C@H]1[C@H](O)C[C@@]2(C)[C@@H]3CC=C4[C@@H](C[C@H](O)C(=O)C4(C)C)[C@]3(C)C(=O)C[C@]12C` show?
< 0.03 µM

Bench note: what TGI did `CC1=NN(C(=O)Cc2ccccc2)C(=O)/C1=C\C=C\c1ccccc1` show?
> 100 µM

Bench note: what TGI did `COc1ccc(-c2cn[nH]c2-c2cc(OC)c(OC)c(OC)c2)cc1N` show?
> 100 µM

###

Tested on: UACC-62 melanoma
assay: NCI tumour cell line growth inhibition, 48 h; in the data active means GI50 below about 0.43 µM; inactive means the rest
Respond using exactly one of the listed classes: active, inactive

Could you kindly confirm the outcome this assay logged for `CC1(C)N=C(N)N=C(N)N1c1cc(Cl)ccc1Cl` ?
inactive

Could you kindly confirm the outcome this assay logged for `CCOC(=O)Oc1c(OC)cc(C(=O)O[C@@H]2C[C@@H]3CN4CCc5c([nH]c6cc(OC)ccc56)[C@H]4C[C@@H]3[C@H](C(=O)OC)[C@H]2OC)cc1OC` ?
inactive

Could you kindly confirm the outcome this assay logged for `Oc1cc2cccc[n+]2c2cccc(Cl)c12` ?
inactive

Could you kindly confirm the outcome this assay logged for `COc1nc(C)cc2c(=O)n(-c3ccccc3)n(CCCN3CCN(c4ccc(Cl)cc4)CC3)c(=O)c12` ?
inactive

Could you kindly confirm the outcome this assay logged for `[C-]#[O+].[C-]#[O+].[Ir].[O-]c1cccc2cccnc12` ?
inactive

Could you kindly confirm the outcome this assay logged for `O=C(Oc1ccc(CCl)cc1)c1ccccc1` ?
active

Could you kindly confirm the outcome this assay logged for `Cc1ccc2c(=O)c3cccc(CC(=O)O)c3oc2c1C` ?
inactive

Could you kindly confirm the outcome this assay logged for `COc1ccc(-c2cn[nH]c2-c2cc(OC)c(OC)c(OC)c2)cc1N` ?
active

###

Tested on: UACC-62 melanoma
assay: NCI tumour cell line growth inhibition, 48 h
Please go through the items and note down their TGI.

Bench note: what TGI did COc1ccc(C2C(Cl)C(=O)N2NC(=O)Cc2ccccc2)cc1 (stereo unspecified) show?
> 100 µM

Bench note: what TGI did `O=S(O)c1cc(Cl)cc(Cl)c1O` show?
> 100 µM

Bench note: what TGI did `CCCNC(=S)/N=C\c1c(O)c2ccccc2oc1=O` show?
> 100 µM

Bench note: what TGI did `COc1ccc(CN(CCc2c[nH]c3ccccc23)Cc2ccc(OC)cc2)cc1` show?
5.6 µM

Bench note: what TGI did `O=C(Nc1nc(C23CC4CC(CC(C4)C2)C3)cs1)c1cc2cc(Br)cc(Br)c2oc1=O` show?
> 100 µM

Bench note: what TGI did `Cc1c2c(n(CCc3ccccc3)c1C)NN=C(C#N)S2(=O)=O` show?
> 100 µM

Bench note: what TGI did `COC(=O)c1ccc(N=NN(C)CO)cc1` show?
> 100 µM

Bench note: what TGI did O=[N+]([O-])C1C2C=CC(C2)[C@H]1c1ccccc1Cl (stereo partly specified) show?
> 31.6 µM

Bench note: what TGI did O=C1/C(=C\c2cccc(Oc3ccccc3)c2)SC(c2ccccc2)N1c1ccc(Cl)cc1 (stereo unspecified) show?
> 100 µM

Bench note: what TGI did CCCCc1c2c(nc3c1CCC/C3=C\c1ccccc1)C(=O)C(CN(C)C)CC2 (stereo unspecified) show?
48.4 µM

Bench note: what TGI did `CC(=O)N1c2ccccc2Sc2cc(C(O)(C(F)(F)F)C(F)(F)F)ccc21` show?
> 10 µM
